- Test system: MCF7
- procedure_details: Growth inhibition of human MCF7 cells after 48 hrs by SRB assay
- Assay type: functional
- run_parameters: MCF7, 48 h
Reported GI50 is given for each of the following compounds.
reported_metric: GI50

# compound, test_value
rows = [
    ("COc1ccc2c3c(cc4ccccc4c13)N(C)C(=O)C2=O", "0.66 µg/mL"),
    ("COc1cc2c3c(cc4ccccc4c3c1OC)N(C)C(=O)C2=O [CEPHARADIONE B]", "> 10 µg/mL"),
    ("CCOc1ccc2c3c(cc4ccccc4c13)N(C)C(=O)C2=O", "> 10 µg/mL"),
    ("CN1C(=O)C(=O)c2cc3c(c4c2c1cc1ccccc14)OCO3 [CEPHARADIONE A]", "6.3 µg/mL"),
    ("Cc1cc2c3c(cc4ccccc4c3c1C)N(C)C(=O)C2=O", "8.4 µg/mL"),
]

###

- Test system: DU-145
- procedure_details: Growth inhibition of human DU145 cells after 48 hrs by SRB assay
- Type: functional
- run_parameters: DU-145, 48 h

# compound, qualifier_operator, GI50 / µg/mL
records = [
    ("COc1ccc2c3c(cc4ccccc4c13)N(C)C(=O)C2=O", "=", 1.3),
    ("CCOc1ccc2c3c(cc4ccccc4c13)N(C)C(=O)C2=O", ">", 10),
    ("COc1cc2c3c(cc4ccccc4c3c1OC)N(C)C(=O)C2=O [CEPHARADIONE B]", "=", 36.1),
    ("CN1C(=O)C(=O)c2cc3c(c4c2c1cc1ccccc14)OCO3 [CEPHARADIONE A]", "=", 4.3),
    ("Cc1cc2c3c(cc4ccccc4c3c1C)N(C)C(=O)C2=O", ">", 10),
]

Value source: ChEMBL document CHEMBL1149665
